# experiment notes: chemical genetic growth profiling, strain panel (AID 1159580);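 further: tested at 20 µM; growth read once vehicle control cultures reached saturation at 30 °C; 1 = growth at the plate median or of vehicle wells; lower values mean less growth of the strain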
# setup conditions: S. cerevisiae deletion strains, growth OD, locus YMR307W, strain GAS1, stronger effect = lower value
Out of some 5,500 compounds screened, about 2,000 (36%) were called active. Another 18% or so got no clear call; they are omitted. This is one part of the list.
metric: normalized growth
Answers are plain numbers.

Answered cases to consult:
C=C1CCC(C2CC(=O)OC2=O)C(=O)CCC2C1CC2(C)C (centres undefined)	1.06
CCCCN(CCCC)CCCOC(=O)c1ccc(N)cc1	1.06
COc1ccc2c(c1)c(CC(=O)O)c(C)n2Cc1ccc(F)cc1	0.99
CC(=O)c1ccc(-c2cccs2)s1	0.95
C=C1CCC2C(CC2(C)C)C(=O)CCC1O (centres undefined)	1.07
CCCCOC(=O)c1ccccc1C(=O)OCc1ccccc1	0.718
C=C1CCC2C(CC2(C)C)C(=C)CC/C1=N\O (centres undefined)	0.423
COc1ccc2c(c1)CCC(c1ccccc1)=C2c1ccc(OCCN2CCCC2)cc1	0.764
C/C1=C\CCC(=O)C2CC(C)(C)C2CC1 (centres undefined)	1.09
C=C1CCC(OC(C)=O)/C(C)=C/C[C@@H]2[C@@H]1CC2(C)C (some centres undefined)	0.973

Batch request: normalized growth for each of the following compounds.
1. CO[C@@]1(NC(=O)CSCC#N)C(=O)N2C(C(=O)O)=C(CSc3nnnn3C)CSC21 (some centres undefined)
2. N#Cc1c(F)cccc1Oc1ccc(F)cc1
3. CCCCOC(=O)c1ccccc1C(=O)OCCCC

Resp:
1. 1.05
2. 0.891
3. 0.713

Req: GET /values?readout=normalized growth&item= C=C1CCC(=O)C(C)CCC2C1CC2(C)C (centres undefined)
Resp: 1.08

----------
# experiment notes: chemical genetic growth profiling, strain panel (AID 1159580);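 further: tested at 20 µM; growth read once vehicle control cultures reached saturation at 30 °C; 1 = growth at the plate median or of vehicle wells; lower values mean less growth of the strain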
# setup conditions: S. cerevisiae deletion strains, growth OD, locus YPL051W, strain arl3, stronger effect = lower value
About 2,000 (36%) of roughly 5,500 compounds were called active. Inconclusive results (about 18%) are left out. The list shows a part of the results.
# if measured normalized growth < 1: t  # else: f

Examples from the recorded data:
COc1ccc2c(c1)O[C@H]1c3ccc(OC)cc3OC[C@@H]21	f
C=C1C(=O)O[C@@H]2C3O[C@]3(C)CC/C=C(\C)CC[C@@H]12 (stereo partly drawn)	t
O=c1cc[nH]c(=S)[nH]1	f

Req: Threshold test, normalized growth < 1: COc1cc([C@@H]2c3cc4c(c(O)c3C[C@H]3COC(=O)[C@@H]32)OCO4)cc(OC)c1OC
Resp: t

Req: Record CC(C)C(C)/C=C/C(C)[C@H]1CCC2C3=CCC4CC(=O)CC[C@]4(C)C3CC[C@@]21C (stereo partly drawn) : is its normalized growth strictly below 1?
Resp: f

----------
# experiment notes: chemical genetic growth profiling, strain panel (AID 1159580);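 further: tested at 20 µM; growth read once vehicle control cultures reached saturation at 30 °C; 1 = growth at the plate median or of vehicle wells; lower values mean less growth of the strain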
# setup conditions: S. cerevisiae deletion strains, growth OD, locus YJL129C, strain trk1, stronger effect = lower value
Screen size: about 5,500 compounds; about 2,000 (36%) were called active. Roughly 18% stayed inconclusive and do not appear here. The list shows a part of the results.
metric: normalized growth
Give bare numbers.

O=c1cc(-c2ccccc2O)oc2cc(O)ccc12	0.945
CCOC(=O)c1ccc(O)cc1	1.03

Please turn your attention to the following entry.
Req: Return reported normalized growth; argument: O=C(O)CN(CC(=O)O)Cc1cc2c(-c3ccccc3C(=O)O)c3cc(CN(CC(=O)O)CC(=O)O)c(=O)cc-3oc2cc1O
Resp: 0.911
